Data origin, for the record: patent US10195156B2

test system: modified luciferase expression; assay: Expression of Luc in different organs (liver, lung, spleen, femur) 6 hours after intravenous administration; format: in vivo; settings: Table 19-3, mice, i.v., 0.5 mpk, lung
PROPERTY_NAME: Total Flux Lung
Lab note: jot the number down without any unit.

Example entries begin here.
[
  {
    "COMPOUND": "CCCCCCCCCCCCN(CCCCCCCCCCCC)CCN1CCNCC1",
    "REPORTED": "2.33E+04"
  },
  {
    "COMPOUND": "CCCCCC=CCC=CCCCCCCCCC(CCCCCCCCC=CCC=CCCCCC)OC(=O)CCCN(C)C (stereo not drawn) [MC3, reference compound]",
    "REPORTED": "5.83E+06"
  },
  {
    "COMPOUND": "CCCCCCCCCN(CCCCCCCCC)CCN1CCNCC1",
    "REPORTED": "1.06E+04"
  },
  {
    "COMPOUND": "CCCCCCCCCCCCN(CCCCCCCCCCCC)CCN1CCN(Cc2ccc(OC)cc2)CC1",
    "REPORTED": "3.46E+04"
  },
  {
    "COMPOUND": "CCCCC/C=C\\C/C=C\\CCCCCCCCN(CCCCCCCC/C=C\\C/C=C\\CCCCC)CCN1CCN(CCCCCCCCCCCC)CC1",
    "REPORTED": "1.81E+05"
  }
]

Please examine the following record next.
Supply measured Total Flux Lung of "CCCCCCCCCCCCN(CCCCCCCCCCCC)CCN1CCN(C)CC1" in your reply.
4.49E+04

###

system: IP-10; test: Cytokine production induced by sample formulations: IP-10; assay type: in vivo; conditions: Table 4; mice, i.v., 0.5 mpk, 6 hours; in pg/mL (unit assumed)
This listing pairs compounds with measured IP-10.
Lab note: jot the number down without any unit.

[
  {
    "COMPOUND": "CCCCC/C=C\\C/C=C\\CCCCCCCCN(CCCCCCCC/C=C\\C/C=C\\CCCCC)CCN(CCCCCCCC/C=C\\C/C=C\\CCCCC)CCN1CCN(CCN(CCCCCCCCCCCC)CCCCCCCCCCCC)CC1 [Compound 34]",
    "REPORTED": 159
  }
]

Supply measured IP-10 of CCCCCCCC/C=C\CCCCCCCCN(CCCCCCCC/C=C\CCCCCCCC)CCN(CCCCCCCC/C=C\CCCCCCCC)CCN1CCN(CCN(CCCCCCCCCCCC)CCCCCCCCCCCC)CC1 [Compound 33] in your reply.
1577

Supply measured IP-10 of CCCCCCCCCCCCCCN(CCCCCCCCCCCCCC)CCN1CCN(CCN(CCCCCCCCC)CCN(CCCCCCCCC)CCCCCCCCC)CC1 [Compound 20] in your reply.
2080

###

This listing pairs molecules with measured PDI.
assay: Particle size and polydispersity index of nanoparticle compositions (Zetasizer Nano ZS); assay type: physicochemical; conditions: Table 1; rows without footnote mark
Lab note: jot the number down without any unit.

Example entries begin here.
[
  {
    "MOLECULE": "CCCCCCCCCCCCN(CCCCCCCCCCCC)CCN(CCCCCCCCCCCC)CCN1CCN(C(=O)CN(CCCCCCCCCCCC)CCCCCCCCCCCC)CC1 [Compound 3]",
    "PROPERTY_NAME": "PDI",
    "REPORTED": 0.044
  },
  {
    "MOLECULE": "CCCCCCCCCN(CCCCCCCCC)CCN(CCCCCCCCC)CCC1CCN(C(=O)CN(CCCCCCCCC)CCCCCCCCC)CC1 [Compound 50]",
    "PROPERTY_NAME": "PDI",
    "REPORTED": 0.190
  },
  {
    "MOLECULE": "CCCCCCCCCN(CCCCCCCCC)CCC1CCN(C(=O)CN(CCCCCCCCC)CCN(CCCCCCCCC)CCCCCCCCC)CC1 [Compound 49]",
    "PROPERTY_NAME": "PDI",
    "REPORTED": 0.200
  },
  {
    "MOLECULE": "CCCCCCCCCCCCCCN(CCCCCCCCCCCCCC)CC(=O)N1CCN(C(=O)CN(CCCCCCCCC)CCN(CCCCCCCCC)CCCCCCCCC)CC1 [Compound 51]",
    "PROPERTY_NAME": "PDI",
    "REPORTED": 0.190
  },
  {
    "MOLECULE": "CCCCCCCCCCCCN(CCCCCCCCCCCC)CC(=O)N1CCN(C(=O)CN(CCCCCCCCCCCC)CCN(CCCCCCCCC)CCCCCCCCC)CC1 [Compound 9]",
    "PROPERTY_NAME": "PDI",
    "REPORTED": 0.170
  },
  {
    "MOLECULE": "CCCCCCCCCCCCN(CCCCCCCCCCCC)CCN(CCCCCCCCCCCC)CC(=O)N1CCN(C(=O)CN(CCCCCCCCC)CCCCCCCCC)CC1 [Compound 7]",
    "PROPERTY_NAME": "PDI",
    "REPORTED": 0.130
  },
  {
    "MOLECULE": "CCCCC/C=C\\C/C=C\\CCCCCCCCN(CCCCCCCCCCCC)CCN1CCN(CCN(CCCCCCCCCCCC)CCN(CCCCCCCCCCCC)CCCCCCCCCCCC)CC1 [Compound 27]",
    "PROPERTY_NAME": "PDI",
    "REPORTED": 0.211
  },
  {
    "MOLECULE": "CCCCCCCCCN(CCCCCCCC(=O)OC)CCN(CCCCCCCCC)CC(=O)N1CCN(C(=O)CN(CCCCCCCCC)CCCCCCCCC)CC1 [Compound 46]",
    "PROPERTY_NAME": "PDI",
    "REPORTED": 0.160
  },
  {
    "MOLECULE": "CCCCCC=CCC=CCCCCCCCCC(CCCCCCCCC=CCC=CCCCCC)OC(=O)CCCN(C)C (stereo not drawn) [MC3, reference compound]",
    "PROPERTY_NAME": "PDI",
    "REPORTED": 0.117
  },
  {
    "MOLECULE": "CCCCCCCCCCCCCCN(CCCCCCCCCCCCCC)CCN(CCCCCCCCCCCCCC)CCN1CCN(CCN(CCCCCCCCCCCCCC)CCCCCCCCCCCCCC)CC1 [Compound 32]",
    "PROPERTY_NAME": "PDI",
    "REPORTED": 0.160
  }
]

Supply measured PDI of CCCCCCCCCCCCN(CCCCCCCCCCCC)CCN(CCCCCCCCCCCC)CC(=O)N1CCN(C(=O)CN(CCCCCCCCCCCC)CCCCCCCCCCCC)CC1 [Compound 11] in your reply.
0.099

Supply measured PDI of CCCCCCCCCCCCCCN(CCCCCCCCCCCCCC)CCN(CCCCCCCCCCCCCC)CCN1CCN(CCN(CCCCCCCCCCCC)CCCCCCCCCCCC)CC1 [Compound 31] in your reply.
0.130

###

tested on: luciferase (Luc) mRNA expression; assay: Expression of Luc induced by sample formulations, whole-body bioluminescence after intravenous administration; format: in vivo; conditions: Table 17-2; mice, i.v., 0.5 mg/kg, 24 hours
PROPERTY_NAME: Total Flux 24 hours
Lab note: jot the number down without any unit.

Supply measured Total Flux 24 hours of "CCCCC/C=C\C/C=C\CCCCCCCCN(CCO)CCCCCCCCCCCCCCCCCC" in your reply.
1.27E+07

Supply measured Total Flux 24 hours of "CCCCCCCCCCCCCCN(CCO)CCCCCCCCCCCCCC" in your reply.
5.46E+05

Supply measured Total Flux 24 hours of "CCCCC/C=C\C/C=C\CCCCCCCCN(CCO)CCCCCCCCCCCC" in your reply.
6.05E+07

###

This listing pairs compounds with measured % remaining dose in liver.
assay: Lipid levels in liver and spleen 48 hours after administration; type: in vivo, rats; conditions: liver, 48 hours after administration
Answer in %, number only, no unit symbol.

Example entries begin here.
[
  {
    "COMPOUND": "CCCCCC=CCC=CCCCCCCCCC(CCCCCCCCC=CCC=CCCCCC)OC(=O)CCCN(C)C (stereo not shown) [MC3, reference compound]",
    "RESULT_UNIT": "%",
    "% remaining dose in liver": 51
  },
  {
    "COMPOUND": "CCCCCCCCCCCCN(CCCCCCCCCCCC)CCN(CCCCCCCCCCCC)CCN1CCN(CCN(CCCCCCCC)CCCCCCCC)CC1 [Compound 22]",
    "RESULT_UNIT": "%",
    "% remaining dose in liver": 58.7
  },
  {
    "COMPOUND": "CCCCCCCCCN(CCCCCCCCC)CCN(CCCCCCCCC)CC(=O)N1CCN(C(=O)CN(CCCCCCCCC)CCCCCCCCC)CC1 [Compound 4]",
    "RESULT_UNIT": "%",
    "% remaining dose in liver": 38
  }
]

Please examine the following record next.
Supply measured % remaining dose in liver of CCCCCCCCCCCCN(CCCCCCCCCCCC)CCN(CCCCCCCCCCCC)CCN1CCN(CCN(CCCCCCCCCCCC(=O)OC)CCCCCCCCCCCC(=O)OC)CC1 [Compound 16] in your reply.
0.79
